Source of measurements: ChEMBL document CHEMBL3124778

System tested: Dihydrofolate reductase (Staphylococcus aureus)
Sequence (P0A017 whole entry): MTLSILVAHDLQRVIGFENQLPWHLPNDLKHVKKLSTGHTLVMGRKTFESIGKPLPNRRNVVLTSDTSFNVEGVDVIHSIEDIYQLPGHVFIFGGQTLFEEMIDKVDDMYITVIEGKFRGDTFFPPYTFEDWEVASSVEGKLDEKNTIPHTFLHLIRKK
pKi: −log10 of the molar value.
Listing of entries alongside the reported pKi.
Assay endpoint: pKi

1) Cc1cc2ncn(-c3ccc4c(N)nc(N)nc4c3)c2cc1C
8.77
2) Cc1cc2nc(-c3cncn3C)n(-c3ccc4c(N)nc(N)nc4c3)c2cc1C
8.96
3) COc1ccc(-c2nc3cc(C)c(C)cc3n2-c2ccc3c(N)nc(N)nc3c2)cc1
9.47
4) Cc1cc2nc(-c3cccnc3)n(-c3ccc4c(N)nc(N)nc4c3)c2cc1C
9.59
5) Cc1cc2nc(-c3cccs3)n(-c3cc4nc(N)nc(N)c4cc3Cl)c2cc1C
11.00

* * *

Tested on: Streptococcus pneumoniae
Measurement notes: Antibacterial activity against Streptococcus pneumoniae ATCC 700671 after 18 to 24 hrs by alamar Blue assay
Type: functional
Listing of entries alongside the reported MIC.
Assay endpoint: MIC (µg/mL)

1. COc1cc(Cc2cnc(N)nc2N)c2c(c1OC)OC(C1CC1)C=C2 (stereo unspecified)
16
2. Cc1cc2nc(-c3nccs3)n(-c3cc4nc(N)nc(N)c4cc3Cl)c2cc1C
4
3. Cc1cc2nc(-c3cccs3)n(-c3ccc4c(N)nc(N)nc4c3)c2cc1C
32
4. Cc1cc2nc(-c3nccs3)n(-c3ccc4c(N)nc(N)nc4c3)c2cc1C
32

* * *

Tested on: Staphylococcus aureus
Measurement notes: Antibacterial activity against Staphylococcus aureus ATCC 13709 after 18 to 24 hrs by alamar Blue assay
Type: functional
Listing of entries alongside the reported MIC.
Assay endpoint: MIC (µg/mL)

1) COc1cc2nc(-c3nccs3)n(-c3cc4nc(N)nc(N)c4cc3Cl)c2cc1OC
0.125
2) COc1ccc(-c2nc3cc(C)c(C)cc3n2-c2ccc3c(N)nc(N)nc3c2)cc1
2
3) Cc1cc2nc(-c3cscn3)n(-c3ccc4c(N)nc(N)nc4c3)c2cc1C
2
4) Cc1cc2nc(-c3nccs3)n(-c3cc4nc(N)nc(N)c4cc3Cl)c2cc1C
0.125
5) Cc1cc2nc(C3CCCO3)n(-c3ccc4c(N)nc(N)nc4c3)c2cc1C (stereo not given)
0.5
6) Cc1cc2nc(-c3ccco3)n(-c3ccc4c(N)nc(N)nc4c3)c2cc1C
0.015
7) COc1cc2nc(-c3ccccn3)n(-c3ccc4c(N)nc(N)nc4c3)c2cc1OC
4
8) Cc1cc2nc(-c3nccs3)n(-c3ccc4c(N)nc(N)nc4c3)c2cc1C
0.015
9) COc1cc2nc(-c3ccco3)n(-c3cc4nc(N)nc(N)c4cc3Cl)c2cc1OC
0.5
10) Cc1cc2nc(-c3cccnc3)n(-c3ccc4c(N)nc(N)nc4c3)c2cc1C
0.5
11) Cc1cc2ncn(-c3ccc4c(N)nc(N)nc4c3)c2cc1C
2
12) Cc1cc2nc(-c3ccoc3)n(-c3ccc4c(N)nc(N)nc4c3)c2cc1C
0.06
13) COc1cc2nc(-c3cccs3)n(-c3cc4nc(N)nc(N)c4cc3Cl)c2cc1OC
0.5
14) Cc1cc2nc(-c3ccncc3)n(-c3ccc4c(N)nc(N)nc4c3)c2cc1C
0.125
15) Cc1cc2nc(-c3cccs3)n(-c3ccc4c(N)nc(N)nc4c3)c2cc1C
0.015
16) Cc1cc2nc(C3CC3)n(-c3ccc4c(N)nc(N)nc4c3)c2cc1C
0.5
17) Cc1cc2nc(-c3cccs3)n(-c3cc4nc(N)nc(N)c4cc3Cl)c2cc1C
0.03
18) Cc1cc2nc(-c3ccccn3)n(-c3ccc4c(N)nc(N)nc4c3)c2cc1C
0.125
19) Cc1cc2nc(-c3cccn3C)n(-c3ccc4c(N)nc(N)nc4c3)c2cc1C
8

* * *

Measurement notes: Selectivity ratio of Ki for human DHFR to Ki for Staphylococcus aureus DHFR
Assay endpoint: Ratio Ki

1. COc1cc2nc(-c3ccccn3)n(-c3ccc4c(N)nc(N)nc4c3)c2cc1OC
2300
2. COc1cc2nc(-c3nccs3)n(-c3ccc4c(N)nc(N)nc4c3)c2cc1OC
5300
3. Cc1cc2nc(-c3ccoc3)n(-c3ccc4c(N)nc(N)nc4c3)c2cc1C
90000
4. Cc1cc2nc(-c3cscn3)n(-c3ccc4c(N)nc(N)nc4c3)c2cc1C
11500

* * *

Tested on: Staphylococcus aureus
Measurement notes: Antibacterial activity against Staphylococcus aureus ATCC 13709 after 18 to 24 hrs by alamar Blue assay in presence of 20% heat inactivated mouse serum
Format: functional
Assay endpoint: MIC (µg/mL)

1. Cc1cc2nc(-c3cscn3)n(-c3ccc4c(N)nc(N)nc4c3)c2cc1C
2
2. Cc1cc2nc(-c3nccs3)n(-c3ccc4c(N)nc(N)nc4c3)c2cc1C
0.125
3. Cc1cc2nc(C3CCOC3)n(-c3ccc4c(N)nc(N)nc4c3)c2cc1C (centres undefined)
64
4. Cc1cc2ncn(-c3ccc4c(N)nc(N)nc4c3)c2cc1C
32

* * *

Measurement notes: Selectivity ratio of Ki for human DHFR to Ki for Staphylococcus aureus DHFR
Assay endpoint: Ratio Ki

1. Cc1cc2nc(-c3nccs3)n(-c3cc4nc(N)nc(N)c4cc3Cl)c2cc1C
690
2. Cc1cc2nc(-c3ccccn3)n(-c3ccc4c(N)nc(N)nc4c3)c2cc1C
26000
3. COc1cc2nc(-c3nccs3)n(-c3cc4nc(N)nc(N)c4cc3C)c2cc1OC
8950
4. Cc1cc2nc(-c3nccs3)n(-c3cc4nc(N)nc(N)c4cc3C)c2cc1C
97
5. COc1cc2nc(-c3nccs3)n(-c3cc4nc(N)nc(N)c4cc3Cl)c2cc1OC
29000

* * *

Listing of entries alongside the reported MIC90.
Test system: Streptococcus pneumoniae
Measurement notes: Antibacterial activity against Streptococcus pneumoniae after 18 to 24 hrs by alamar Blue assay
Format: functional
Assay endpoint: MIC90

1) Cc1cc2nc(-c3nccs3)n(-c3ccc4c(N)nc(N)nc4c3)c2cc1C
8 µg/mL
2) Cc1cc2nc(-c3cccs3)n(-c3ccc4c(N)nc(N)nc4c3)c2cc1C
16 µg/mL
3) Cc1cc2nc(-c3cccs3)n(-c3cc4nc(N)nc(N)c4cc3Cl)c2cc1C
> 64 µg/mL
4) Cc1cc2nc(-c3nccs3)n(-c3cc4nc(N)nc(N)c4cc3Cl)c2cc1C
4 µg/mL
5) COc1cc(Cc2cnc(N)nc2N)c2c(c1OC)OC(C1CC1)C=C2 (stereo unspecified)
8 µg/mL
6) COc1cc(Cc2cnc(N)nc2N)cc(OC)c1OC
> 64 µg/mL

* * *

Measurement notes: Terminal half life in BALB/c mouse at 5 mg/kg, iv
Format: ADME, organism-based
Design: dose 5 mg/kg, route intravenous
Assay context: in vivo, read-out: beta t1/2 (converted)
Assay endpoint: half-life (h)

1. Cc1cc2nc(-c3nccs3)n(-c3ccc4c(N)nc(N)nc4c3)c2cc1C
1.4

* * *

Listing of entries alongside the reported MIC.
Tested on: Staphylococcus aureus
Measurement notes: Antibacterial activity against TMP-resistant Staphylococcus aureus expressing DHFR F99Y mutant after 18 to 24 hrs by alamar Blue assay
Type: functional
Assay endpoint: MIC (µg/mL)

1. Cc1cc2nc(-c3ccncc3)n(-c3ccc4c(N)nc(N)nc4c3)c2cc1C
8
2. Cc1cc2nc(-c3cccnc3)n(-c3ccc4c(N)nc(N)nc4c3)c2cc1C
32
3. Cc1cc2nc(-c3nccs3)n(-c3cc4nc(N)nc(N)c4cc3Cl)c2cc1C
0.25
4. Cc1cc2nc(-c3cccs3)n(-c3cc4nc(N)nc(N)c4cc3Cl)c2cc1C
4

* * *

Listing of entries alongside the reported MIC.
Tested on: Staphylococcus aureus
Measurement notes: Antibacterial activity against Staphylococcus aureus ATCC 13709 after 18 to 24 hrs by alamar Blue assay in presence of 20% heat inactivated mouse serum
Format: functional
Assay endpoint: MIC (µg/mL)

1) Cc1cc2nc(-c3ccncc3)n(-c3ccc4c(N)nc(N)nc4c3)c2cc1C
0.5
2) COc1cc2nc(-c3ccco3)n(-c3cc4nc(N)nc(N)c4cc3Cl)c2cc1OC
0.5
3) COc1cc2nc(-c3nccs3)n(-c3cc4nc(N)nc(N)c4cc3C)c2cc1OC
0.5

* * *

Entries with reported pKi on Dihydrofolate reductase (Homo sapiens, UniProt P00374)
Sequence (P00374 whole entry): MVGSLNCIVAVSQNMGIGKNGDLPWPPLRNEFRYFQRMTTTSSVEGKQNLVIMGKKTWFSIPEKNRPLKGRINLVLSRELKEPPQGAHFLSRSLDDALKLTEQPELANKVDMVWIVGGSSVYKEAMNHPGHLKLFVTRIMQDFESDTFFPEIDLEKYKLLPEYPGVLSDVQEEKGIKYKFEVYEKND
pKi: −log10 of the molar value.
Assay endpoint: pKi

1) Cc1cc2nc(-c3cccn3C)n(-c3ccc4c(N)nc(N)nc4c3)c2cc1C
< 5.30
2) COc1cc2nc(-c3cccs3)n(-c3cc4nc(N)nc(N)c4cc3Cl)c2cc1OC
< 5.52
3) Cc1cc2nc(-c3cccs3)n(-c3cc4nc(N)nc(N)c4cc3Cl)c2cc1C
< 5.52
